Data origin, for the record: patent US20220056112A1

MEASURED ON: nucleocapsid protein of SARS-CoV-2 (SARS-CoV-2, UniProt P0DTC9 1-419)
VALUE TYPE: Kd (nM)
Quick reminder: number only, in nM, skip the unit.

If you can, please state the reported Kd value of rabbit monoclonal antibody 5B4 against the SARS-CoV-2 nucleocapsid protein (antibody, V domains shown) VH: QSLEESGGGLVKPGGTLTLTCTVSGLSLSTNAPNWVRQAPGKGLEWIGTIFIDDEDTYYASWAKGRFTISKTSSTTITLKMTSLTAADTATYFCARNSDLWDPGTLVVVSS VL: AQVLTQTPSPVSAAVGGTVTINCQASQSVYNNNYLSWFQQKPGQPPKLLIYKASTLASGVSSRFKGSGSGTQFTLTISDVQCDDAATYFCLGSYDCRSANCIVFGGGTEVVVKG .
0.717
